Listed next: entries and their corresponding kon.
# TARGET: T1, purified human CD117 ectodomain (R&D Systems #332-SR) (human, UniProt P10721 26-524)
# T1 construct: extracellular domain; Bought protein; also called c-kit; purified recombinant human CD117 ectodomain
# T1 sequence (P10721 26-524): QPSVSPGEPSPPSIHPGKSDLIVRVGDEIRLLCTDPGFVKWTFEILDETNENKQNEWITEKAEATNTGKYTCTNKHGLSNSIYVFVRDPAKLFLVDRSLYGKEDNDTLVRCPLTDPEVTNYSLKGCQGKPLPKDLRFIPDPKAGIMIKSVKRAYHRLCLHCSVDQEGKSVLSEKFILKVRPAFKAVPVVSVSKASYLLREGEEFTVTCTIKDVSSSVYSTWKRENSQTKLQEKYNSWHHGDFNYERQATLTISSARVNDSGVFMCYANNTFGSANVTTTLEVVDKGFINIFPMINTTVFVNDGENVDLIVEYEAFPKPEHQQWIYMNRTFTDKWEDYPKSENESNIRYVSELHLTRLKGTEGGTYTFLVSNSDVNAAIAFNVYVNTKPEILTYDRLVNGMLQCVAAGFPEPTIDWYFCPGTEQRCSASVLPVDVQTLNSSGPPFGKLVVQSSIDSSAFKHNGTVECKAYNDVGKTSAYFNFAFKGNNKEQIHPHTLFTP
# ASSAY_EXPLANATION: BLI (Octet Red96), IgG1 on anti-human Fc sensor, 33.3 and 11 nM ectodomain, 1:1 fit
Response body: numeric value in M⁻¹ s⁻¹, unit text excluded.

Here is how some binders turned out for kon.
{"BINDER": "HC-77/LC-77 (Ab77) (antibody, IgG1, V domains shown, Purified human antibody tested as an IgG1; hIgG1/hKappa; also called Antibody 77) VH: QVQLVQSGAAVKKPGESLKISCKGSGYRFTTYWIGWVRQMPGKGLEWMGIIYPGDSDTRYSPSFQGQVTISAGKSISTAYLQWSSLKASDTAMYYCARHGRGYNGYEGAFDIWGQGTMVTVSS VL: DIQLTQSPSSLSASVGDRVTITCRASQGVISALAWYQQKPGKAPKLLIYDASILESGVPSRFSGSGSGTDFTLTISSLQPEDFATYYCQQFNSYPLTFGGGTKVEIK", "QUANTITY_NAME": "kon", "READOUT_VALUE": 315000}
{"BINDER": "HC-81/LC-81 (Ab81) (antibody, IgG1, V domains shown, Purified human antibody tested as an IgG1; hIgG1/hKappa; also called Antibody 81) VH: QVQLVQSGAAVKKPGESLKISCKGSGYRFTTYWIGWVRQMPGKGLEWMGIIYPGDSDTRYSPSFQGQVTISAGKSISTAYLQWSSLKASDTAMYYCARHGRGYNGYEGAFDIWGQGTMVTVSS VL: DIQLTQSPSSLSASVGDRVTITCRASQGVISALAWYQQKPGKAPKLLIYDASTLESGVPSRFSGSGSGTDFTLTISSLQPEDFATYYCQQFNSYPLTFGGGTKVEIK", "QUANTITY_NAME": "kon", "READOUT_VALUE": 288000}

Shift focus to the following entry.
Inquiry: Item HC-1/LC-1 (Ab1) (antibody, IgG1, V domains shown, Purified IgG (IgG1); also called 001; CK6 derivative Ab1) VH: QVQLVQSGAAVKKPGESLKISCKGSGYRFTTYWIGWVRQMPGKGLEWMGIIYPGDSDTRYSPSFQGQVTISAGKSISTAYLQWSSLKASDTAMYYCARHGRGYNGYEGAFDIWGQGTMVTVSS VL: AIQLTQSPSSLSASVGDRVTITCRASQGVSSALAWYQQKPGKAPKLLIYDASSLESGVPSRFSGSGSGTDFTLTISSLQPEDFATYYCQQFNSYPLTFGGGTKVEIK has what recorded kon?
Reply text: 420000
